Source of measurements: ChEMBL document CHEMBL1147216

Species on record: Homo sapiens
Assay: Selectivity of human progesterone receptor over human glucocorticoid receptor
Reported Property: Ratio IC50

[A] CN(C)c1ccc([C@H]2C[C@@]3(C)[C@@H](CC[C@@]3(O)C#Cc3ccc(Cl)cc3)[C@@H]3OCC4=CC(=O)CCC4=C32)cc1
[B] CN(C)c1ccc([C@H]2C[C@@]3(C)[C@@H](CC[C@@]3(O)C#Cc3cccc(Cl)c3)[C@@H]3OCC4=CC(=O)CCC4=C32)cc1
[C] CN(C)c1ccc([C@H]2C[C@@]3(C)[C@@H](CC[C@@]3(O)C#Cc3ccc(C(F)(F)F)cc3)[C@@H]3OCC4=CC(=O)CCC4=C32)cc1
Prompt: Order the records so the highest Ratio IC50 appears first and the lowest last. Record the ranking as a list of labels in the requested order.
Completion: C, A, B
(C: 148, A: 71, B: 4)

----------
Biological target: UniProtKB P06401
Sequence (P06401 whole entry): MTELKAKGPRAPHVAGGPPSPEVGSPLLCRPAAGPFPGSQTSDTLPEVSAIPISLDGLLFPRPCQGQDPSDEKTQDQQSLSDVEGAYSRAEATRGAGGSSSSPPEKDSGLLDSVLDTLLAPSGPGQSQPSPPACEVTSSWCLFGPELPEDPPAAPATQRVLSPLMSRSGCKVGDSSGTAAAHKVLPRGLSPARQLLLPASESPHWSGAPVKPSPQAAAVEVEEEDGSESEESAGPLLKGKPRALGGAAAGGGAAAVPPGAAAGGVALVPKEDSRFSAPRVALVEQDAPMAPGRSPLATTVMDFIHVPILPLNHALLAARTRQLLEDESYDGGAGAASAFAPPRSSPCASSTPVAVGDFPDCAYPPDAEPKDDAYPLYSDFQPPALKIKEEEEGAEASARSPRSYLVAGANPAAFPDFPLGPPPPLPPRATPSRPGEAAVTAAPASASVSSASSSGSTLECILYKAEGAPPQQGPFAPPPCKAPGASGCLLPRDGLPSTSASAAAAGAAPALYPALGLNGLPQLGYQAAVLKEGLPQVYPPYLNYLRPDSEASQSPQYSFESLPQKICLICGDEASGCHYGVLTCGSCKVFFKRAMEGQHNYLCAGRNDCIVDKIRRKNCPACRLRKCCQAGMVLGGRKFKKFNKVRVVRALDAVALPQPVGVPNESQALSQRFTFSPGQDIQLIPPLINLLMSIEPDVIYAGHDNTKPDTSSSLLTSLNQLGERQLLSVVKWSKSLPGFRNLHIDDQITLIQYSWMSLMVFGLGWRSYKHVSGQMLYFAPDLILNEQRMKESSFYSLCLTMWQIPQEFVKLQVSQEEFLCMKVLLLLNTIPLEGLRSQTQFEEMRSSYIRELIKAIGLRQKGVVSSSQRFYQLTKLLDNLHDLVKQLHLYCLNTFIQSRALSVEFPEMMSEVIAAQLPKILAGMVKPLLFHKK
Experiment: Antagonist activity at human progesterone receptor assessed as inhibition of alkaline phosphatase activity in human T47D cells
Reported Property: IC50 (nM)

Example entries and their recorded answers appear below.
{"columns": ["Compound Smiles", "Test System", "IC50 [nM]"],
 "data": [
  ["CN(C)c1ccc([C@H]2C[C@@]3(C)[C@@H](CC[C@@]3(O)C#Cc3ccncc3)[C@@H]3OCC4=CC(=O)CCC4=C32)cc1", "UniProtKB P06401", 39],
  ["Cc1cccc(C#C[C@]2(O)CC[C@H]3[C@@H]4OCC5=CC(=O)CCC5=C4[C@@H](c4ccc(N(C)C)cc4)C[C@@]32C)c1", "UniProtKB P06401", 2.9],
  ["CN(C)c1ccc([C@H]2C[C@@]3(C)[C@@H](CC[C@@]3(O)C#Cc3cccc(Cl)c3)[C@@H]3OCC4=CC(=O)CCC4=C32)cc1", "UniProtKB P06401", 12.5],
  ["CN(C)c1ccc([C@H]2C[C@@]3(C)[C@@H](CC[C@@]3(O)C#Cc3ccccc3F)[C@@H]3OCC4=CC(=O)CCC4=C32)cc1", "UniProtKB P06401", 1.4],
  ["Cc1ccc(C#C[C@]2(O)CC[C@H]3[C@@H]4OCC5=CC(=O)CCC5=C4[C@@H](c4ccc(N(C)C)cc4)C[C@@]32C)cc1", "UniProtKB P06401", 1.6],
  ["CN(C)c1ccc([C@H]2C[C@@]3(C)[C@@H](CC[C@@]3(O)C#Cc3ccc(F)cc3)[C@@H]3OCC4=CC(=O)CCC4=C32)cc1", "UniProtKB P06401", 0.27],
  ["CN(C)c1ccc([C@H]2C[C@@]3(C)[C@@H](CC[C@@]3(O)C#Cc3ccccc3Cl)[C@@H]3OCC4=CC(=O)CCC4=C32)cc1", "UniProtKB P06401", 1.1],
  ["CN(C)c1ccc([C@H]2C[C@@]3(C)[C@@H](CC[C@@]3(O)C#Cc3cccc(F)c3)[C@@H]3OCC4=CC(=O)CCC4=C32)cc1", "UniProtKB P06401", 1],
  ["Cc1ccccc1C#C[C@]1(O)CC[C@H]2[C@@H]3OCC4=CC(=O)CCC4=C3[C@@H](c3ccc(N(C)C)cc3)C[C@@]21C", "UniProtKB P06401", 5.8],
  ["COc1ccc(C#C[C@]2(O)CC[C@H]3[C@@H]4OCC5=CC(=O)CCC5=C4[C@@H](c4ccc(N(C)C)cc4)C[C@@]32C)cc1", "UniProtKB P06401", 3.2]
]}

[I] CN(C)c1ccc([C@H]2C[C@@]3(C)[C@@H](CC[C@@]3(O)C#Cc3cc(F)cc(F)c3)[C@@H]3OCC4=CC(=O)CCC4=C32)cc1
[II] CN(C)c1ccc([C@H]2C[C@@]3(C)[C@@H](CC[C@@]3(O)C#Cc3ccc(C(C)(C)C)cc3)[C@@H]3OCC4=CC(=O)CCC4=C32)cc1
Prompt: Which one would you say has the larger IC50 value: I , or II ? State your choice using its label.
Completion: II
(II: 19.5 nM, I: 0.91 nM)

----------
Species: Homo sapiens
Assay: Selectivity of human progesterone receptor over human glucocorticoid receptor
Reported Property: Ratio IC50

{"columns": ["Compound Smiles", "Ratio IC50"],
 "data": [
  ["CN(C)c1ccc([C@H]2C[C@@]3(C)[C@@H](CC[C@@]3(O)C#Cc3cccnc3)[C@@H]3OCC4=CC(=O)CCC4=C32)cc1", 16],
  ["Cc1cccc(C#C[C@]2(O)CC[C@H]3[C@@H]4OCC5=CC(=O)CCC5=C4[C@@H](c4ccc(N(C)C)cc4)C[C@@]32C)c1", 13],
  ["CN(C)c1ccc([C@H]2C[C@@]3(C)[C@@H](CC[C@@]3(O)C#Cc3ccc(C#N)cc3)[C@@H]3OCC4=CC(=O)CCC4=C32)cc1", 11]
]}

----------
Biological target: Glucocorticoid receptor (Homo sapiens, UniProt P04150)
Sequence (P04150 whole entry): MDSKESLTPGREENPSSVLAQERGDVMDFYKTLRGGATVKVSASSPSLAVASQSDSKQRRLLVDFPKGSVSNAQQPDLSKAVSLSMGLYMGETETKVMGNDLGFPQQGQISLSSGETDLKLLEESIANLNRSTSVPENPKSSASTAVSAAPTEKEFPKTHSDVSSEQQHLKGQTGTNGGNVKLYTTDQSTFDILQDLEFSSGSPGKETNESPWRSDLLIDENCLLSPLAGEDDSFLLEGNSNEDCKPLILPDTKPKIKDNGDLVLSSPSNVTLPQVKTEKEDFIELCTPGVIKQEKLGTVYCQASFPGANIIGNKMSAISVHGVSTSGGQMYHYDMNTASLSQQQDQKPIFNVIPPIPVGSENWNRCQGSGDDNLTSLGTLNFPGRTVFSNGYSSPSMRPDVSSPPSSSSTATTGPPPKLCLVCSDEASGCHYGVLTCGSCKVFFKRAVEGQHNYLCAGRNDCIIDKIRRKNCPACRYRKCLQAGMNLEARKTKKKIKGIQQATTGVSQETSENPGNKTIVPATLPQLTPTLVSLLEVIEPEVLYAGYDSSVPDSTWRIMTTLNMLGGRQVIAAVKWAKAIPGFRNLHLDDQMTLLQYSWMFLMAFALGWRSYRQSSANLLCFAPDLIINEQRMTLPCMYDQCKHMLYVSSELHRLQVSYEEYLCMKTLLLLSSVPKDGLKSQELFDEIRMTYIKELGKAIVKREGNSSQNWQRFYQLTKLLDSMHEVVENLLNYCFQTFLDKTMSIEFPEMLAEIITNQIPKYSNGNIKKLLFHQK
Test: Antagonist activity at human glucocorticoid receptor assessed as inhibition of corticoid-induced transcription in human A549 cells by GRE-linked luciferase reporter gene assay
pIC50: −log10 of the molar value.
Reported Property: pIC50

{"columns": ["Compound Smiles", "pIC50"],
 "data": [
  ["CN(C)c1ccc([C@H]2C[C@@]3(C)[C@@H](CC[C@@]3(O)C#Cc3cccnc3)[C@@H]3OCC4=CC(=O)CCC4=C32)cc1", 6.47],
  ["Cc1ccc(C#C[C@]2(O)CC[C@H]3[C@@H]4OCC5=CC(=O)CCC5=C4[C@@H](c4ccc(N(C)C)cc4)C[C@@]32C)cc1", 7.66],
  ["CN(C)c1ccc([C@H]2C[C@@]3(C)[C@@H](CC[C@@]3(O)C#Cc3ccccc3Br)[C@@H]3OCC4=CC(=O)CCC4=C32)cc1", 7.20],
  ["COc1ccc(C#C[C@]2(O)CC[C@H]3[C@@H]4OCC5=CC(=O)CCC5=C4[C@@H](c4ccc(N(C)C)cc4)C[C@@]32C)cc1", 7.10],
  ["CN(C)c1ccc([C@H]2C[C@@]3(C)[C@@H](CC[C@@]3(O)C#Cc3cccc(Cl)c3)[C@@H]3OCC4=CC(=O)CCC4=C32)cc1", 7.31]
]}

[I] CN(C)c1ccc([C@H]2C[C@@]3(C)[C@@H](CC[C@@]3(O)C#Cc3ccc(C(C)(C)C)cc3)[C@@H]3OCC4=CC(=O)CCC4=C32)cc1
[II] Cc1cccc(C#C[C@]2(O)CC[C@H]3[C@@H]4OCC5=CC(=O)CCC5=C4[C@@H](c4ccc(N(C)C)cc4)C[C@@]32C)c1
Prompt: Which one would you say has the larger pIC50 value: I , or II ? State your choice using its label.
Completion: II

[I] CN(C)c1ccc([C@H]2C[C@@]3(C)[C@@H](CC[C@@]3(O)C#Cc3ccccc3F)[C@@H]3OCC4=CC(=O)CCC4=C32)cc1
[II] Cc1ccccc1C#C[C@]1(O)CC[C@H]2[C@@H]3OCC4=CC(=O)CCC4=C3[C@@H](c3ccc(N(C)C)cc3)C[C@@]21C
[III] CN(C)c1ccc([C@H]2C[C@@]3(C)[C@@H](CC[C@@]3(O)C#Cc3cc(F)cc(F)c3)[C@@H]3OCC4=CC(=O)CCC4=C32)cc1
Prompt: hey, can you rank those compounds up there by pIC50? biggest number first please Record the ranking as a list of labels in the requested order.
Completion: III, I, II
(III: 7.46, I: 7.19, II: 6.95)

[a] CN(C)c1ccc([C@H]2C[C@@]3(C)[C@@H](CC[C@@]3(O)C#Cc3ccc(C#N)cc3)[C@@H]3OCC4=CC(=O)CCC4=C32)cc1
[b] CN(C)c1ccc([C@H]2C[C@@]3(C)[C@@H](CC[C@@]3(O)C#Cc3ccc(C(F)(F)F)cc3)[C@@H]3OCC4=CC(=O)CCC4=C32)cc1
Prompt: Which one would you say has the larger pIC50 value: a , or b ? State your choice using its label.
Completion: a
(a: 7.38, b: 6.95)
